Quick record: pIC50, QPCT (Homo sapiens (Human)).
Recall that pIC50 is obtained by taking minus log10 of the concentration measured in molar.

Lookup: I have this molecule here, Cn1cc(-c2ccc(-c3ccc(F)nc3)c(N3CCC(c4nncn4C)CC3)c2C#N)cn1 [Compound 35, reference compound] , and I need its recorded pIC50.
Found: 8.40

Lookup: Cn1cc(-c2cc(C#N)c(N3CCC(F)(c4nncn4C)CC3)c(-c3ccc(F)nc3)c2)cn1 [Example 5] , same question.
Found: 8.70

Lookup: Next molecule: Cn1cnnc1C1(F)CCN(c2c(C#N)cc(-c3cnc(C(F)(F)F)nc3)cc2-c2ccc(F)nc2)CC1 [Example 9]
Found: 8.22

Lookup: Follow-up item: Cc1nn(C)c(C)c1-c1cc(C#N)c(N2CCC(F)(c3nncn3C)CC2)c(-c2ccc(F)nc2)c1 [Example 3]
Found: 8.30

Lookup: Also Cn1cnnc1C1CCN(c2c(-c3ccc(F)nc3)ccc(-c3ccnc(N)c3)c2C#N)CC1 [Compound 44, reference compound] , if possible.
Found: 8.30

Lookup: Now consider Cc1ncc(-c2cc(C#N)c(N3CCC(F)(c4nncn4C)CC3)c(-c3ccc(F)nc3)c2)cn1 [Example 7] .
Found: 8.40

Lookup: Again, but for Cc1nn(C)cc1-c1cc(C#N)c(N2CCC(F)(c3nncn3C)CC2)c(-c2ccc(F)nc2)c1 [Example 4]
Found: 8.52

Lookup: Can you check Cn1cnnc1C1(F)CCN(c2c(C#N)cc(C(C)(C)O)cc2-c2ccc(F)nc2)CC1 [Example 1] next?
Found: 9.00

Lookup: Please answer likewise for Cn1cnnc1C1(F)CCN(c2c(C#N)cc(-c3cccnc3)cc2-c2ccc(F)nc2)CC1 [Example 6]
Found: 8.40

Lookup: For Cc1ncc(-c2cc(C#N)c(N3CCC(F)(c4nncn4C)CC3)c(-c3ccc(F)nc3)c2)o1 [Example 2] then?
Found: 8.40

Lookup: Lookup Cn1cnnc1C1(F)CCN(c2c(C#N)cc(-c3ccnnc3)cc2-c2ccc(F)nc2)CC1 [Example 8]
Found: 8.52

====

experiment: Assay C: Permeability in CACO-2 cells; assay type: in vitro ADME; conditions: human, Caco-2, pH 7.2; pair comparison without/with 4-fluoropiperidyl; read-out: Efflux ratio (BA/AB)
Classify by measured efflux ratio: Yes if it is equal to or exceeds 6, No if it is smaller.

Lookup: Given the entry `Cn1cnnc1C1CCN(c2c(C#N)cc(Cl)nc2-c2ccc(F)nc2)CC1` , answer whether its efflux ratio meets or surpasses 6.
Found: No

Lookup: And the next one, `Cn1cnnc1C1CCN(c2c(C#N)cc(C(F)(F)F)nc2-c2cnc3nn(C(C)(C)C)c(C(F)(F)F)c3c2)CC1` ?
Found: No

Lookup: Check `Cn1cnnc1C1CCN(c2c(C#N)cccc2-c2ccnnc2)CC1` too.
Found: Yes

Lookup: Please give the result for `Cn1cnnc1C1(F)CCN(c2c(C#N)cc(F)cc2-c2cnc3nn(C(C)(C)C)c(C(F)(F)F)c3c2)CC1` too.
Found: No

Lookup: Try the compound `Cn1cnnc1C1CCN(c2c(C#N)cc(F)cc2-c2cnc3nn(C(C)(C)C)c(C(F)(F)F)c3c2)CC1`
Found: No

Lookup: Next entry: `Cn1cnnc1C1(F)CCN(c2c(C#N)cc(Cl)nc2-c2ccc(F)nc2)CC1`
Found: No

Lookup: Do the same for `Cn1cnnc1C1(F)CCN(c2c(C#N)cc(C(F)(F)F)nc2-c2cnc3nn(C(C)(C)C)c(C(F)(F)F)c3c2)CC1` please
Found: No

Lookup: Now try `Cn1cnnc1C1CCN(c2c(C#N)cc(C(F)(F)F)nc2-c2cnc3nn(C(C)(C)C)c(Cl)c3c2)CC1` .
Found: Yes

Lookup: Record: `Cn1cnnc1C1(F)CCN(c2c(C#N)cc(C(F)(F)F)nc2-c2cnc3nn(C(C)(C)C)c(Cl)c3c2)CC1`
Found: No

====

Test system: CYP3A4 mRNA
Assay: Assay D: CYP induction screening assay in primary human hepatocytes
Format: in vitro ADME
Settings: 48 h
Description: Cryopreserved plateable human hepatocytes (single donor, BioIVT) were thawed and plated in Collagen-I coated 96-well-plates at a cell density of 0.07 million cells per well. After a 6 h attachment period, the seeding medium was replaced by serum-free William's medium E supplemented with Matrigel (0.25 mg/ml) and allowed to recover overnight. […] After 48 h of treatment in total, the effect of the test compounds on CYP3A4 mRNA expression was assessed using the QuantiGene Plex Gene Expression Assay. […]
Answer each item with its documented n-fold induction of CYP3A4 at 10 μM.
# value in n-fold; strip the unit string

Lookup: # get_value(readout='n-fold induction of CYP3A4 at 10 μM', item= `Cc1ncc(-c2cc(C#N)c(N3CCC(F)(c4nncn4C)CC3)c(-c3ccc(F)nc3)c2)cn1` )
Found: 0.7

Lookup: What do we get for `Cn1cnnc1C1(F)CCN(c2c(C#N)cc(C(C)(C)O)cc2-c2ccc(F)nc2)CC1` ?
Found: 2.2

Lookup: Repeat with `Cn1cnnc1C1(F)CCN(c2c(C#N)cc(-c3cnc(C(F)(F)F)nc3)cc2-c2ccc(F)nc2)CC1`
Found: 1.4

Lookup: Follow-up entry: `Cn1cnnc1C1(F)CCN(c2c(C#N)cc(-c3ccnnc3)cc2-c2ccc(F)nc2)CC1`
Found: 0.9

Lookup: Same for Cn1cncc1C1CCN(c2c(C#N)cccc2-c2ccc(F)nc2)CC1 [QP5038, reference compound]
Found: 58.5

Lookup: Note, next up: Cn1cnnc1C1CCN(c2c(-c3ccc(F)nc3)ccc(-c3ccnc(N)c3)c2C#N)CC1 [Compound 44, reference compound]
Found: 1.0

====

tested on: CACO-2 cells; test: Assay C: Permeability in CACO-2 cells; format: in vitro ADME; settings: pair comparison without/with 4-fluoropiperidyl
Provide the reported CACO2 Perm. of each item.

Lookup: For the compound shown here, `Cn1cnnc1C1(F)CCN(c2c(C#N)cccc2-c2cnc3nn(C(C)(C)C)cc3c2)CC1` , give the reported CACO2 Perm..
Found: 4.9 10^−6 cm/sec

Lookup: `Cn1cnnc1C1CCN(c2c(C#N)cc(F)cc2-c2cnc3nn(C(C)(C)C)c(C(F)(F)F)c3c2)CC1` , same question.
Found: 17.0 10^−6 cm/sec

Lookup: Now this one: `Cn1cnnc1C1CCN(c2c(C#N)cccc2-c2ccnnc2)CC1`
Found: 0.3 10^−6 cm/sec

Lookup: Also `Cn1cnnc1C1(F)CCN(c2c(C#N)ccnc2-c2ccc(F)nc2)CC1` ?
Found: 28.0 10^−6 cm/sec

Lookup: Okay, and `Cn1cnnc1C1CCN(c2c(C#N)cc(Cl)cc2-c2cnc3nn(C(C)(C)C)cc3c2)CC1` ?
Found: 2.5 10^−6 cm/sec

Lookup: Next up: `Cn1cnnc1C1CCN(c2c(C#N)cc(F)cc2-c2ccc(F)nc2)CC1`
Found: 24.0 10^−6 cm/sec

Lookup: Subsequent entry: `Cn1cnnc1C1(F)CCN(c2c(C#N)cc(F)cc2-c2cnc3nn(C(C)(C)C)c(C(F)(F)F)c3c2)CC1`
Found: 51.0 10^−6 cm/sec

Lookup: Next record, please: `Cn1cnnc1C1(F)CCN(c2c(C#N)cccc2-c2ccc(F)nc2)CC1`
Found: 50.0 10^−6 cm/sec

Lookup: # iterate: `Cn1cnnc1C1CCN(c2c(C#N)ccnc2-c2ccc(F)nc2)CC1`
Found: 4.8 10^−6 cm/sec

Lookup: Cool, now `Cn1cnnc1C1CCN(c2c(-c3ccc(F)nc3)ccnc2C#N)CC1`
Found: 1.8 10^−6 cm/sec

Lookup: Now consider `Cn1cnnc1C1CCN(c2c(C#N)cc(C(F)(F)F)nc2-c2cnc3nn(C(C)(C)C)c(C(F)(F)F)c3c2)CC1` .
Found: 3.7 10^−6 cm/sec

Lookup: What about this compound? `Cn1cnnc1C1(F)CCN(c2c(-c3cnc4nn(C(C)(C)C)cc4c3)ccc(C(F)(F)F)c2C#N)CC1`
Found: 1.7 10^−6 cm/sec

====

assay: Assay C: Permeability in CACO-2 cells; type: in vitro ADME; settings: human, Caco-2, pH 7.2; Assay C, permeability B-A/permeability A-B; read-out: Efflux Ratio
reported_metric: efflux ratio
No unit in the answer, only the number.

Lookup: Param item = `Cn1cnnc1C1(F)CCN(c2c(C#N)cc(-c3cccnc3)cc2-c2ccc(F)nc2)CC1` ; retrieve measured efflux ratio.
Found: 4.6

Lookup: Same thing, different compound: `Cc1ncc(-c2cc(C#N)c(N3CCC(F)(c4nncn4C)CC3)c(-c3ccc(F)nc3)c2)cn1`
Found: 7.9

Lookup: # repeat for `Cn1cnnc1C1(F)CCN(c2c(C#N)cc(C(C)(C)O)cc2-c2ccc(F)nc2)CC1`
Found: 11.9

Lookup: Then `Cn1cc(-c2cc(C#N)c(N3CCC(F)(c4nncn4C)CC3)c(-c3ccc(F)nc3)c2)cn1` ?
Found: 6.7

Lookup: Next: Cn1cc(-c2ccc(-c3ccc(F)nc3)c(N3CCC(c4nncn4C)CC3)c2C#N)cn1 [Compound 35, reference compound]
Found: 12.2

Lookup: Can you check `Cn1cnnc1C1(F)CCN(c2c(C#N)cc(-c3ccnnc3)cc2-c2ccc(F)nc2)CC1` next?
Found: 20.3

Lookup: And for `Cn1cnnc1C1(F)CCN(c2c(C#N)cc(-c3cnc(C(F)(F)F)nc3)cc2-c2ccc(F)nc2)CC1` ?
Found: 5.2

Lookup: What do we get for Cn1cnnc1C1CCN(c2c(-c3ccc(F)nc3)ccc(-c3ccnc(N)c3)c2C#N)CC1 [Compound 44, reference compound] ?
Found: 47.9

Lookup: One more compound: `Cc1nn(C)cc1-c1cc(C#N)c(N2CCC(F)(c3nncn3C)CC2)c(-c2ccc(F)nc2)c1`
Found: 8.8

Lookup: Cool, now Cn1cncc1C1CCN(c2c(C#N)cccc2-c2ccc(F)nc2)CC1 [QP5038, reference compound]
Found: 0.8

Lookup: Try the compound `Cc1ncc(-c2cc(C#N)c(N3CCC(F)(c4nncn4C)CC3)c(-c3ccc(F)nc3)c2)o1`
Found: 3.3

Lookup: And what about the compound Cn1c(N)nnc1C1CCN(c2c(C#N)cccc2-c2ccc(F)nc2)CC1 [Compound 14, reference compound] ?
Found: 22.2

Lookup: Then `Cc1nn(C)c(C)c1-c1cc(C#N)c(N2CCC(F)(c3nncn3C)CC2)c(-c2ccc(F)nc2)c1` ?
Found: 7.8
